B1: DBP-RII with C-terminally fused GFP, wild type, on the surface of HEK293T cells [Plasmodium vivax] / Duffy antigen/receptor for chemokines (DARC) on human red blood cells [human (endogenous in RBCs)] (parent)
chain 1: ASNTVMKNCNYKRKRRERDWDCNTKKDVCIPDRRYQLCMKELTNLVNNTDTNFHRDITFRKLYLKRKLIYDAAVEGDLLLKLNNYRYNKDFCKDIRWSLGDFGDIIMGTDMEGIGYSKVVENNLRSIFGTDEKAQQRRKQWWNESKAQIWTAMMYSVKKRLKGNFIWICKLNVAVNIEPQIYRWIREWGRDYVSELPTEVQKLKEKCDGKINYTDKKVCKVPPCQNACKSYDQWITRKKNQWDVLSNKFISVKNAEKVQTAGIVTPYDILKQELDEFNEVAFENEINKRDGAYIELCVCSVEEAKKNTQEVVTNVDN
chain 2: MGNCLHRAELSPSTENSSQLDFEDVWNSSYGVNDSFPDGDYGANLEAAAPCHSCNLLDDSALPFFILTSVLGILASSTVLFMLFRPLFRWQLCPGWPVLAQLAVGSALFSIVVPVLAPGLGSTRSSALCSLGYCVWYGSAFAQALLLGCHASLGHRLGAGQVPGLTLGLTVGIWGVAALLTLPVTLASGASGGLCTLIYSTELKALQATHTVACLAIFVLLPLGLFGAKGLKKALGMGPGPWMNILWAWFIFWWPHGVVLGLDFLVRSKLLLLSTCLAQQALDLLLNLAEALAILHCVATPLLLALFCHQATRTLLPSLPLPEGWSSHLDTLGSKS

Variants of: B1
Assay: red blood cell rosetting (RBC binding) assay with DBP-RII-GFP expressed on HEK293 cells
Conditions: parent: 100, read off a plot
endpointName: percent of parent

Give the reported value of percent of parent for this record: chain 1 A73L
0 % Binding

Please list percent of parent recorded for the variant chain 1 T58W
55 % Binding

Give recorded percent of parent. chain 1 Y155L
0 % Binding

Quick one: give measured percent of parent for chain 1 I57R
72 % Binding

State its percent of parent for this variant: chain 1 Q148Y
66 % Binding

Read the entry chain 1 Q148D and write its reported percent of parent.
18 % Binding
